Target: Phosphodiesterase 3 (Homo sapiens, UniProt Q14432+Q13370)
Experiment: Inhibition of platelet cAMP phosphodiesterase
Label true (1) when IC50 is strictly below 0.6 µM; otherwise label false (0).

Please review the following examples before continuing.
# Compound, Classification
measured = [
    ("O=C1CN2Cc3cc(OCCn4ccnc4)ccc3N=C2N1", "false (0)"),
    ("O=C1CN2Cc3ncccc3N=C2N1", "false (0)"),
    ("O=C1CN2Cc3ccccc3N=C2N1", "false (0)"),
    ("O=C1CN2Cc3cc(I)ccc3N=C2N1", "true (1)"),
    ("O=C1CN=C(Nc2ccc(-n3ccnc3)cc2)N1", "false (0)"),
]

Enquiry: API: query returns whether the compound falls strictly under 0.6 µM in IC50. Query: `O=C1CN2Cc3ccncc3N=C2N1`
Return: false (0)

Enquiry: Please indicate whether the reported IC50 of `O=C1CN2Cc3cc(OCCCCCCn4ccnc4)ccc3N=C2N1` is strictly below 0.6 µM.
Return: false (0)

Enquiry: Problem: For the compound `O=C1CN2Cc3cc(N4CCCCC4)ccc3N=C2N1` , is IC50 under 0.6 µM?
Return: true (1)

Enquiry: Could you please tell me whether IC50 recorded for C[C@@H]1C(=O)NC2=Nc3cccc(Cl)c3CN21 [QUAZINONE] is less than 0.6 µM?
Return: true (1)

Enquiry: Below 0.6 µM on IC50? Entry `O=C1CN2Cc3cc(OCc4ccccc4)ccc3N=C2N1`
Return: true (1)

Enquiry: Please let me know if `O=C1CN2Cc3cnccc3N=C2N1` shows IC50 below 0.6 µM.
Return: false (0)

Enquiry: IC50 under 0.6 µM? Item: `O=C1CN2Cc3cc(Cl)ccc3N=C2N1`
Return: false (0)

====

Target: Phosphodiesterase 3 (Homo sapiens, UniProt Q14432+Q13370)
Assay: Inhibition of platelet cAMP phosphodiesterase
This listing pairs molecules with measured IC50.

See these solved cases before continuing.
# Molecule, Recorded measurement
measured = [
    ("O=C1CN2Cc3cccnc3N=C2N1", "330 µM"),
    ("O=C1CN2Cc3cc(O)ccc3N=C2N1", "3.3 µM"),
    ("CCc1[nH]c(=O)[nH]c1C(=O)c1ccncc1", "> 100 µM"),
]

Enquiry: State its IC50 for this molecule: Cc1c(Br)ccc2c1CN1C(=N2)NC(=O)C1C (centres undefined)
Return: 0.07 µM

====

Species: Canis familiaris
Test: Dose at which 50% blood pressure decrease in dogs
Type: functional
Settings: Canis lupus familiaris
Readout label: ED50 (µmol/kg)
// note: answer is a bare numeric in µmol/kg

Some solved cases for reference:
# Molecule, ED50 / µmol/kg
records = [
    ("CC1CC(O)=NN=C1c1ccc(-n2ccnc2)cc1 (stereo not given)", 0.1),
    ("CN(C(=O)CCCOc1ccc2c(c1)CN1CC(=O)NC1=N2)C1CCCCC1", 0.05),
    ("Cc1[nH]c(=O)c(C#N)cc1-c1ccncc1", 0.59),
]

Enquiry: Complete the entry with ED50 for `O=C1CN2Cc3cc(-n4ccnc4)ccc3N=C2N1`
Return: 0.64
